- assay_explanation: Toxicity liver stage against HepG2, at 10uM
- Assay type: cell-based
- Parameters: test concentration 10 uM, cell line HepG2-A16-CD81EGFP
- stated_conditions: human, HepG2-A16-CD81EGFP cells; read-out: INHIBITION
cytotoxicity at 10 µM by entry:
measurement_type: cytotoxicity at 10 µM

* CN(Cc1nnc2n1CCC2)S(=O)(=O)c1cc(Br)ccc1Br | 0.392%
* CCc1noc(CN(C)C(=O)COc2cccc(Cl)c2C)n1 | 3.86%
* CS(=O)(=O)c1cccc(Cl)c1C(=O)NCCN1C(=O)CCC1=O | -1.19%
* COc1cccc(C(=O)N2CCC(Nc3ccc(C)nn3)CC2)c1 | -2.24%
* COc1cccc(CNC(=O)N2CCN(Cc3cc(C)on3)CC2)c1 | -1.58%
* CCc1ccc(CN2CCN(c3ccc(C#N)cc3)C(=O)C2)nc1 | -1.32%
* O=C1COC2(CCN(CC3CCOCC3)CC2)CN1Cc1ccccn1 | -2.76%
* CCn1c2c(ccc1=O)CC(NCc1cnn(C)c1)CC2 (configuration not stated) | -102%
* O=C(Cc1ccccc1Cl)NCCN1CCC(c2cccs2)CC1 | 6.93%
* COCCC(C)NC(=O)c1cc(Br)c2c(c1)OCCO2 (configuration not stated) | -13.4%
* Cn1cnc(-c2nc(C(=O)NC3CC3)c3ccccn23)c1 | -114%
* CNC(=O)C1CCN(c2ncnc3c2CCN(C(=O)C2CC2)C3)C1 (configuration not stated) | 1.67%
